Provide the recorded IC50 for the entries that follow.
system: T47D cells; assay: Cell-based assay: anti-proliferative activity, Cell Counting Kit-8, 72 hours (T47D); settings: 72 hours
Answers are plain numbers, in µM.

[[record]]
compound = "CC(C)(N)c1ccc(Nc2c(C(=O)C3CC3)cnc3ccc(-c4cc(Cl)c(O)c(Cl)c4)cc23)cc1"
observation_type = "IC50"
quantitative_result = 0.13

[[record]]
compound = "CC(=O)c1cnc2ccc(-c3cc(F)c(O)c(Cl)c3)cc2c1Nc1ccc(N2CCN(C)CC2)nc1 [Example 487]"
observation_type = "IC50"
quantitative_result = 0.041


Next, consider the following compound.
# input Answer with the recorded IC50 of CC(=O)c1cnc2ccc(-c3cc(F)c(O)c(Cl)c3)cc2c1Nc1ccc(N2CCCC(N)C2)nc1 (stereo not drawn) only.
# output 0.0035

----------
Provide the recorded IC50 for the entries that follow.
system: T47D cells; test: Cell-based assay: anti-proliferative activity, Cell Counting Kit-8, 72 hours (T47D); settings: Homo sapiens, T47D, 72 h
Structures can show the parent of a compound that is named as a salt.
Numbers only, in µM.

Look over these answered cases.
[[record]]
molecule = "CN(C)CCOc1ccc(Nc2c(S(C)(=O)=O)cnc3ccc(-c4cc(Cl)c(O)c(Cl)c4)cc23)cn1 [Example 884, hydrochloride]"
observation_type = "IC50"
quantitative_result = 0.91

[[record]]
molecule = "NC1CCN(c2ncc(Nc3c(C(=O)C4CC4)cnc4ccc(-c5cc(F)c(O)c(Cl)c5)cc34)cn2)C1 (centres unmarked)"
observation_type = "IC50"
quantitative_result = 0.0076

[[record]]
molecule = "COc1cc(-c2ccc3ncc(C(=O)C4CC4)c(N4CCN(C)CC4)c3c2)cc(Cl)c1O"
observation_type = "IC50"
quantitative_result = 0.48

[[record]]
molecule = "CC(=O)c1cnc2ccc(-c3cc(Cl)c(O)c(Cl)c3)cc2c1N[C@H]1CC[C@H](CN2CCN(C)CC2)CC1 [Example 782, hydrochloride]"
observation_type = "IC50"
quantitative_result = 0.15

[[record]]
molecule = "CS(=O)(=O)c1cnc2ccc(-c3cc(Cl)c(O)c(Cl)c3)cc2c1Nc1ccc(N2CCCC(N)C2)nc1 (centres unmarked)"
observation_type = "IC50"
quantitative_result = 0.27


Need IC50 for each of these molecules.
1. CC(=O)c1cnc2ccc(-c3cc(F)c(O)c(Cl)c3)cc2c1N[C@H]1CCC[C@@H](CN(C)C)C1 [Example 826, hydrochloride]
2. CCCC(=O)c1cnc2ccc(-c3cc(Cl)c(O)c(Cl)c3)cc2c1N[C@H]1CC[C@H](N)CC1
3. COc1cc(-c2ccc3ncc(C(=O)C4CC4)c(N[C@H]4CC[C@H](CN)CC4)c3c2)cc(Cl)c1O
4. CCN(CC)CCO[C@H]1CC[C@H](Nc2c(C(C)=O)cnc3ccc(-c4cc(Cl)c(O)c(Cl)c4)cc23)CC1 [Example 868, hydrochloride]

# output
1. 0.25
2. 0.077
3. 0.078
4. 0.14

----------
Provide the recorded IC50 for the entries that follow.
system: HT-1197 cells; assay: Cell-based assay: anti-proliferative activity, Cell Counting Kit-8, 72 hours (HT-1197, negative control without MELK expression); details: Homo sapiens, HT1197, 72 h, HT1197 cells (negative control, no MELK expression), 72 hours
Counter-ions that a name gives are not always drawn.
Give bare numbers, in µM.

Look over these answered cases.
[[record]]
compound = "NC1CCCN(c2ccc(Nc3c(C(=O)C4CC4)cnc4ccc(-c5cc(F)c(O)c(F)c5)cc34)cn2)C1 (stereo not drawn)"
observation_type = "IC50"
measure_unit = "µM"
quantitative_result = 0.11

[[record]]
compound = "CNC1CCCN(c2ccc(Nc3c(C(C)=O)cnc4ccc(-c5cc(F)c(O)c(Cl)c5)cc34)cn2)C1 (stereo not drawn) [Example 815, trihydrochloride]"
observation_type = "IC50"
measure_unit = "µM"
quantitative_result = 0.052

[[record]]
compound = "COc1cc(-c2ccc3ncc(C(=O)C4CC4)c(N[C@H]4CC[C@H](CN5CCC(O)C5)CC4)c3c2)cc(Cl)c1O (stereo partly drawn)"
observation_type = "IC50"
measure_unit = "µM"
quantitative_result = 3.6

[[record]]
compound = "CC(=O)c1c(C)nc2ccc(-c3cc(Cl)c(O)c(Cl)c3)cc2c1Nc1ccc(N2CCN(C)CC2)nc1 [Example 838, hydrochloride]"
observation_type = "IC50"
measure_unit = "µM"
quantitative_result = 25


Need IC50 for each of these compounds.
1. COc1cc(-c2ccc3ncc(S(C)(=O)=O)c(N4CCC(CN5CCCC5)CC4)c3c2)cc(Cl)c1O
2. NC1CCN(c2cc(Nc3c(C(=O)C4CC4)cnc4ccc(-c5cc(Cl)c(O)c(Cl)c5)cc34)ccn2)CC1
3. CCC(=O)c1cnc2ccc(-c3cc(F)c(O)c(Cl)c3)cc2c1Nc1ccc(N2CCCC(N)C2)nc1 (stereo not drawn)

# output
2.5
20
0.069
